Value source: ChEMBL document CHEMBL4825730

- test.protocol: Solubility in PBS buffer
- Format: physicochemical
Classify on solubility using low value: < 10 µM; medium value: ≥ 10 µM and < 90 µM; high value: ≥ 90 µM

Please review the entries below; each comes with its answer.
{"compound": "Cc1ccc(NC(=O)Cn2ncc(Cl)c(Cl)c2=O)cc1S(=O)(=O)N1CCCCC1", "cat": "low value"}
{"compound": "Cc1cnc(NC(=O)Cn2ncc(Cl)c(Cl)c2=O)cc1S(=O)(=O)N(C)C", "cat": "low value"}
{"compound": "Cc1ccc(NC(=O)[C@H](C)n2ncc(Cl)c(Cl)c2=O)cc1S(=O)(=O)NCCc1ccccn1", "cat": "medium value"}

### Prompt Classify this compound: Cc1ccc(NC(=O)Cn2ncc(Cl)c(Cl)c2=O)c(C)c1S(=O)(=O)NCCc1ccccn1
### Response low value

### Prompt Which band does Cc1ccc(N(C)C(=O)Cn2ncc(Cl)c(Cl)c2=O)cc1S(=O)(=O)NCCc1ccccn1 fall in?
### Response medium value

### Prompt Tag the class for CN(C)S(=O)(=O)N1CCCC(NC(=O)Cn2ncc(Cl)c(Cl)c2=O)C1 (stereo unspecified)
### Response high value

### Prompt Consider O=C(NC[C@H](O)CN1CCc2ccccc2C1)c1cc(NC2COC2)ncn1 . To which solubility class does it belong?
### Response high value

### Prompt Which class holds Cc1ccc(NC(=O)Cn2ncc(Cl)c(Cl)c2=O)cc1S(=O)(=O)N1CCCN(C)CC1 ?
### Response high value

### Prompt # bin label for CCc1ccc(NC(=O)Cn2ncc(Cl)c(Cl)c2=O)cc1S(=O)(=O)NCCc1ccccn1
### Response medium value

### Prompt State the band of Cc1ccc(NC(=O)Cn2ncc(Cl)c(Cl)c2=O)nc1S(=O)(=O)NCCc1ccccn1
### Response low value

### Prompt For the record Nc1nc2cc(CC[C@H]3C[C@@H](n4ccc5c(N)ncnc54)[C@H](O)[C@@H]3O)ccc2cc1Br [ONAMETOSTAT] , report the class its solubility corresponds to.
### Response low value

### Prompt Which category fits this record: Cc1ncc(NC(=O)Cn2ncc(Cl)c(Cl)c2=O)cc1S(=O)(=O)N1CCCN(C)CC1
### Response high value

### Prompt Into which bin does this compound go? O=C(Cn1ncc(Cl)c(Cl)c1=O)Nc1cccc(S(=O)(=O)NCCc2ccccn2)c1
### Response medium value

### Prompt Band assignment needed for COc1ccc(NC(=O)Cn2ncc(Cl)c(Cl)c2=O)cc1S(=O)(=O)NCCc1ccccn1 please.
### Response high value

### Prompt Using the reported solubility, which band applies to Cc1cc(C)c(S(=O)(=O)NCCc2ccccn2)cc1NC(=O)Cn1ncc(Cl)c(Cl)c1=O ?
### Response medium value

### Prompt Pick a category. Item: Cc1ccc(NC(=O)[C@@H](C)n2ncc(Cl)c(Cl)c2=O)cc1S(=O)(=O)NCCc1ccccn1
### Response medium value

### Prompt Which class holds Cc1ccc(N(C)C(=O)[C@H](C)n2ncc(Cl)cc2=O)cc1S(=O)(=O)NCCc1ccccn1 ?
### Response high value

### Prompt # classify by solubility band: Cc1ccc(NC(=O)Cn2ncc(Cl)c(Cl)c2=O)cc1S(=O)(=O)NCCc1ccncc1
### Response high value

### Prompt In plain terms, what class is Cc1cc(NC(=O)Cn2ncc(Cl)c(Cl)c2=O)cc(S(=O)(=O)NCCc2ccccn2)c1C ?
### Response low value
